- Tested on: LOX IMVI
- assay-comment: NCI tumour cell line growth inhibition, 48 h
Calls of active or inactive are those of the source. No stated cut-off is given here; in the data, active = GI50 up to about 1.1 µM and inactive = higher.
Quick reference: GI50 of the listed items.

>  <molecule>
C=CCc1c(O)c2nsnc2c2nsnc12

>  <tested-target>
LOX IMVI

>  <GI50>
> 10 µM (inactive)

$$$$
>  <molecule>
O=C1Cc2c([nH]c3ccc(Br)cc23)-c2ccccc2N1

>  <tested-target>
LOX IMVI

>  <GI50>
5.35 µM (inactive)

$$$$
>  <molecule>
Nc1c(C(=O)NC23CC4CC(CC(C4)C2)C3)[n+]([O-])c2ccccc2[n+]1[O-]

>  <tested-target>
LOX IMVI

>  <GI50>
> 100 µM (inactive)

$$$$
>  <molecule>
COc1cccc(-c2cc(=O)c3cc(C)c(C)c(C(=O)O)c3o2)c1

>  <tested-target>
LOX IMVI

>  <GI50>
> 100 µM (inactive)

$$$$
>  <molecule>
CCN1CCC(O)(c2ccc(Cl)cc2)C(C(=O)c2ccc(Cl)cc2)C1 (stereo unspecified)

>  <tested-target>
LOX IMVI

>  <GI50>
> 100 µM (inactive)

$$$$
>  <molecule>
CCOC(=O)C1(N)CC1

>  <tested-target>
LOX IMVI

>  <GI50>
> 100 µM (inactive)

$$$$

====

- Test system: SF-539
- assay-comment: NCI tumour cell line growth inhibition, 48 h
Calls of active or inactive are those of the source. No stated cut-off is given here; in the data, active = GI50 up to about 1.1 µM and inactive = higher.
Possible outcomes: true (active), false (inactive)

>  <compound>
COC(=O)/C=C(\C)CC/C=C(\C)CCC(O)C(C)(C)O (stereo not drawn)

>  <assigned-category>
false

$$$$
>  <compound>
CCCC1=C(CC)C(C(=O)Nc2c(C)cccc2C)=NC(S)N1 (stereo not drawn)

>  <assigned-category>
false

$$$$
>  <compound>
CN1C(=O)C2C=C3CCCCC3=CC2N(C)C1=O (stereo not drawn)

>  <assigned-category>
false

$$$$
>  <compound>
Cc1cc(S(=O)(=O)Nc2nc(N)n(C)n2)c(S)cc1Cl

>  <assigned-category>
false

$$$$
>  <compound>
S=C(N/N=C\C(=N/NC(=S)N1CCCCC1)c1ccccc1)N1CCCCC1

>  <assigned-category>
false

$$$$
>  <compound>
CN(C)CCNS(=O)(=O)N(C)C

>  <assigned-category>
false

$$$$
>  <compound>
O=C(N/N=C(COc1ccc(Cl)cc1)\N=C\c1cccnc1)c1ccncc1

>  <assigned-category>
false

$$$$
>  <compound>
COc1ccc2nc3ccccc3c(NCCN(CCCl)CCCl)c2c1

>  <assigned-category>
true

$$$$
>  <compound>
CN1CC(c2ccccc2)N(CCCCN2CC(c3ccccc3)N(C)CC2c2ccccc2)CC1c1ccccc1 (stereo not drawn)

>  <assigned-category>
false

$$$$
>  <compound>
CC1(C)CC(=O)C(CC2C(=O)CCCC2=O)C(=O)C1

>  <assigned-category>
false

$$$$
>  <compound>
COc1ccc(C(c2ccccc2)N2C(=O)CCC2C(=O)O)cc1OC (stereo not drawn)

>  <assigned-category>
false

$$$$
>  <compound>
O=C1[C@@H]2C3SC(c4ccccc43)[C@@H]2C(=O)N1c1ccccc1

>  <assigned-category>
false

$$$$
>  <compound>
O=[N+]([O-])/C=C/c1ccc(Cl)cc1Cl

>  <assigned-category>
false

$$$$
>  <compound>
Cc1ccc(C2SC(=N)Nc3c2c(C)nn3C(=O)c2ccncc2)cc1 (stereo not drawn)

>  <assigned-category>
false

$$$$
>  <compound>
COc1cccc(C2c3cc4c(cc3OC(Nc3ccccc3)C2C)OCO4)c1O (stereo not drawn)

>  <assigned-category>
false

$$$$
>  <compound>
COc1ccc(-c2cc(O)c3c(C)cc(C)nc3n2)cc1

>  <assigned-category>
false

$$$$
>  <compound>
COc1cc2c3c(c1Oc1nnnn1-c1ccccc1)-c1c(ccc4c1OCO4)C[C@H]3N(C)CC2

>  <assigned-category>
false

$$$$
>  <compound>
O=C(O)C(C(C(=O)O)P(=O)(O)O)P(=O)(O)O (stereo not drawn)

>  <assigned-category>
false

$$$$
>  <compound>
C[C@@H]1CC[C@H]2C(C)(C)[C@H]3C[C@@]12CC[C@@]3(C)O [CEDROL]

>  <assigned-category>
false

$$$$
>  <compound>
O=C1NC2C(=O)N(Cc3ccccc3)C(=O)C2N1 (stereo not drawn)

>  <assigned-category>
false

$$$$
>  <compound>
COc1ccc(OC)c(CC2CCc3nc(N)nc(N)c3C2)c1 (stereo not drawn)

>  <assigned-category>
true

$$$$
>  <compound>
CC(C(=O)O)C1Nc2ccccc2NC1=O (stereo not drawn)

>  <assigned-category>
false

$$$$
>  <compound>
c1ccc(-c2nnc3nn4c(-c5ccccc5)cnnc4c3c2-c2ccccc2)cc1

>  <assigned-category>
false

$$$$

====

- Test system: BT-549
- assay-comment: NCI tumour cell line growth inhibition, 48 h
Activity calls are given as the source filed them. Cut-off read from the data, not from the text of the source: active = GI50 up to about 1.1 µM and inactive = higher.
endpoint-label: GI50

>  <compound>
COc1ccc(C[C@H]2COC(=O)[C@@H]2Cc2ccc(Br)cc2)cc1OC

>  <result>
17.5 µM (inactive)

$$$$
>  <compound>
CNC1=CC(=O)C2=C(C1=O)[C@H]1CC[C@]3(C)C(=O)CC[C@H]3[C@@H]1CC2

>  <result>
16.4 µM (inactive)

$$$$
>  <compound>
N#CC1=C(N2CCOCC2)CCC1

>  <result>
> 100 µM (inactive)

$$$$
>  <compound>
CC(=O)OCC12C(OC(C)=O)C[C@@H](C)C3(CC(c4ccoc4)OC3=O)C1CCC(O)C21CO1 (some centres not stated)

>  <result>
> 100 µM (inactive)

$$$$
>  <compound>
COc1ccc(-c2c3c(n(C4OC(COC(C)=O)C(OC(C)=O)C(OC(C)=O)C4OC(C)=O)c(=S)c2C#N)CCC3)cc1 (configuration not stated)

>  <result>
96.4 µM (inactive)

$$$$
>  <compound>
CCOC(=O)CCC(NC(=O)c1ccc(Nc2nc3ccc(C(F)(F)F)cc3nc2-c2ccccc2)cc1)C(=O)OCC (configuration not stated)

>  <result>
> 100 µM (inactive)

$$$$
>  <compound>
O=NN(CCCl)C(=O)NC1CCC(=O)NC1=O (configuration not stated)

>  <result>
251 µM (inactive)

$$$$

====

- Tested on: XF498
- assay-comment: NCI tumour cell line growth inhibition, 48 h
The source made the active and inactive calls. No stated cut-off is given here; in the data, active = GI50 up to about 1.1 µM and inactive = higher.
Outcome codes: active, inactive

>  <molecule>
CS(=O)(=O)c1ccc(COP(N)(=O)N(CCCl)CCCl)cc1 (centres undefined)

>  <assigned-category>
inactive

$$$$
>  <molecule>
CC(=O)O[C@H]1C(=O)[C@@]2(C)C(C(OC(=O)c3ccccc3)[C@]3(O)CC(OC(=O)C(O)C(NC(=O)c4ccc(C(F)(F)F)cc4)c4ccccc4)C(C)=C1C3(C)C)[C@]1(OC(C)=O)CO[C@@H]1C[C@@H]2O (some centres undefined)

>  <assigned-category>
active

$$$$
>  <molecule>
Cc1ccc(C)c(NC(=O)CC2SC(Nc3ccccc3Cl)=NC2=O)c1 (centres undefined)

>  <assigned-category>
inactive

$$$$
>  <molecule>
CCc1cc2c(Nc3ccccc3)c3c(nc2s1)CCCC3

>  <assigned-category>
inactive

$$$$

====

- Test system: Malme-3M
- assay-comment: NCI tumour cell line growth inhibition, 48 h
The source made the active and inactive calls. Rule as the data show it: active = GI50 up to about 1.1 µM and inactive = higher.
Outcomes: label 1 for active, label 0 for inactive

>  <compound>
Cc1ccc2[nH]c3c(c2c1)C1CCC(C(C)(C)C)CC1C1C(=O)N(c2ccc4c(c2)OCO4)C(=O)C31 (stereo not given)

>  <assigned-category>
label 0

$$$$
>  <compound>
CSc1ccc2c(cc1=O)C(NC(=O)c1ccc(C#N)cc1)CCc1cc(O)c(O)c(O)c1-2 (stereo not given)

>  <assigned-category>
label 0

$$$$
>  <compound>
CC(=O)OC1COC(n2c(=S)n(-c3ccccc3)c(=O)c3ccccc32)C(OC(C)=O)C1OC(C)=O (stereo not given)

>  <assigned-category>
label 0

$$$$
>  <compound>
C1CNOCCCONCCCNOCCCONC1

>  <assigned-category>
label 0

$$$$
>  <compound>
COC(=O)/C=C/N1CC1

>  <assigned-category>
label 0

$$$$
>  <compound>
O=C(N/N=C/c1ccccc1O)c1cccc([N+](=O)[O-])c1

>  <assigned-category>
label 0

$$$$
>  <compound>
CC(C)Oc1cc2c(cc1O)CC[C@@H]1[C@@H]2CC[C@]2(C)[C@@H](O)CC[C@@H]12

>  <assigned-category>
label 0

$$$$
>  <compound>
COC12OC3CC4(C)C(=CC3OC(OC(C)C1O)C2O)CCC1C4CCC2(C)C(c3ccc(=O)oc3)CCC12O (stereo not given)

>  <assigned-category>
label 1

$$$$
>  <compound>
CCN(CC)S(=O)(=O)c1ccc2[nH]c(NC(=O)OC)nc2c1

>  <assigned-category>
label 0

$$$$
>  <compound>
COc1ccc(OC)c(CC2CCc3nc(N)nc(N)c3C2)c1 (stereo not given)

>  <assigned-category>
label 1

$$$$
